Ref: patent US20250027068

- measurement_target: pooled human IgG (human IgG1,2,3 and 4)
measured_endpoint: Enzyme Activity Endpoint Assay: Fc (ng/µL)
Write the answer as a number in ng/µL, unit excluded.

>  <protein>
PRT-260 (protein) MVTSVWTKGVTPPTNFTYGEDVLHAPYVANQGWYDITKTFNGKDNLLCGAATAGNMLHWWFDQNKEQIENYLKKHPEKQKINFNGEQLFDVKEAIDTKDSQLDSKLFDYFKEKAFPNLSTKHLGVFPDHVIDMFINGYRLSLLNHGPTPVKRGSKDKRGGIFDAVFTRGVQSKLLTNRHDFKEKTLKEISDLIKQELTEGKALGISHTYANVRINHVINLWGADFDAEGNLEAIYVTDSDTNPSIGMKKYFVGVNSSGKVAISAKEIEEDNIGAQVLGLFTLSTGQDIWNQTN

>  <measured_endpoint>
Enzyme Activity Endpoint Assay: Fc

>  <value_units>
ng/µL

>  <test_result>
354

$$$$

Query :: Tell me the measured Enzyme Activity Endpoint Assay: Fc of PRT-331 (protein) MTITSVWTKGVTPPTPEDFRENNEDVLHAPYVANQGWYDITKTFDGKDNLLCGAATAGNMLHWWFDQNKEEIERYLKKHPEKQKIIFNNQELFDVKAAIDTKDSQTNSKLFDYFRDKAFPGLSARQLGVFPDLVLDMFINGYYLNLGKTQSTDVNRPYQDKDKRGGIFDAVFTRGVQTTLLTARHDLKNKGLNEISDLIKQELTEGKALALSHTYANVRINHVINLWGADFDAEGNLIAIYVTDSDANASIGMKKYFVGRNANGKVAISAKKIEGDNIGAQVLGLFTLSTGQDQWQKLS , please.
Result :: 398
